# STUDY SYSTEM: HCV NS5B (Hepatitis C virus genotype 1b, UniProt Q9WMX2)
# Construct: The protein was expressed with an 18 amino acid C-terminal truncation to enhance the solubility; made in house; host or cells: E. coli BL21(DE3)
# Sequence (Q9WMX2 2420-2992): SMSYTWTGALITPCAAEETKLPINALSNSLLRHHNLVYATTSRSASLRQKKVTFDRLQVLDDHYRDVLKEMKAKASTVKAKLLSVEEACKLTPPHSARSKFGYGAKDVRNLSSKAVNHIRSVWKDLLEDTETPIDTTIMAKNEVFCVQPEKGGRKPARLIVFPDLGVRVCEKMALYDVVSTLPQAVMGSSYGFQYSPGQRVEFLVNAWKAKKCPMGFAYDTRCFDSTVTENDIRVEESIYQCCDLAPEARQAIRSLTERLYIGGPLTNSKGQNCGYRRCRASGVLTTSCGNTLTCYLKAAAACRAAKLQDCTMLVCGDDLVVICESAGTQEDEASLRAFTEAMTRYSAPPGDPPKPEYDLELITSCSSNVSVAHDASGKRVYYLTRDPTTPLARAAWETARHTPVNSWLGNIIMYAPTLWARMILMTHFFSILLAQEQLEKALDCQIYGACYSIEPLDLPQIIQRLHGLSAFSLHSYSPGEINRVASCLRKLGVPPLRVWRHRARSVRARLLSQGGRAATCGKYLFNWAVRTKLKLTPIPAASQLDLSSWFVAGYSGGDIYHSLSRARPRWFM
# PROTOCOL TEXT: HCV NS5B RdRp enzyme assay (standard / modified)
# Format: biochemical
# CONDITION LABEL: HCV RdRp genotype 1b; standard or modified assay not specified; read-out: IC50
pIC50: −log10 of the molar value.
ATTRIBUTE MEASURED: pIC50

Please tell me: pIC50 of COc1ccc2c(c1)C1CC1(C(=O)N1C3CCCC1CN(C)C3)Cn1c-2c(C2CCCCC2)c2ccc(C(=O)NS(=O)(=O)C(C)C)cc21 (stereo not drawn) , system HCV NS5B (Hepatitis C virus genotype 1b, UniProt Q9WMX2)? 6.30 to 8.62

Please tell me: pIC50 of COc1ccc2c(c1)C1CC1(C(=O)N1C3CC1CN(C)C3)Cn1c-2c(C2CCCCC2)c2ccc(C(=O)NS(=O)(=O)C3CCOCC3)cc21 (stereo not drawn) , system HCV NS5B (Hepatitis C virus genotype 1b, UniProt Q9WMX2)? 6.30 to 8.62

Please tell me: pIC50 of COc1ccc2c(c1)C1CC1(C(=O)N1C[C@@H]3C[C@H]1CN3CC(C)C)Cn1c-2c(C2CCCCC2)c2ccc(C(=O)NS(=O)(=O)C(C)C)cc21 (stereo partly drawn) [drawing 95] , system HCV NS5B (Hepatitis C virus genotype 1b, UniProt Q9WMX2)? 6.30 to 8.62
